Biological target: T1, N-terminal His-tagged DnaK (His-DnaK) (E. coli, UniProt P0A6Y8 1-638)
T1 construct: also called DnaKWT; bacterial Hsp70; source: E. coli BL21 (DE3), from pDnaKWT (ASKA clone), purified (TALON, Mono Q, Superdex G-200); not shown: His tag, N-terminal, kept
T1 sequence (P0A6Y8 whole entry): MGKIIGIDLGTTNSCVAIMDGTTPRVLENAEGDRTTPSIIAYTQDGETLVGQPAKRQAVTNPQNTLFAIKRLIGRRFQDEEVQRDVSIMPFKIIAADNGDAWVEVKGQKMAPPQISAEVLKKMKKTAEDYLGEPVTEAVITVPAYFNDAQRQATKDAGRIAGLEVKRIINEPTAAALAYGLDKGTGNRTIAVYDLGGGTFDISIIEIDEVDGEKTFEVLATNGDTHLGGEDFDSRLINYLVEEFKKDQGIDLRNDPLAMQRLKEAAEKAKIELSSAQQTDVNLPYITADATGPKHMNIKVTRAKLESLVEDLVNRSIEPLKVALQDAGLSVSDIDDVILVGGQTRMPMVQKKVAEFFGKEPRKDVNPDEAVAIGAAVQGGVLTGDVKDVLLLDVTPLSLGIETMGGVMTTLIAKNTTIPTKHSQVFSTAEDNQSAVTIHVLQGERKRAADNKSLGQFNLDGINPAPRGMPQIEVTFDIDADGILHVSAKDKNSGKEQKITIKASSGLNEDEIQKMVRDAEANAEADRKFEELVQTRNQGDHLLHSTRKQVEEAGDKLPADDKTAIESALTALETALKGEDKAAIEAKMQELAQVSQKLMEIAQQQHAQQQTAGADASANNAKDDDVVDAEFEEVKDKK
Test: SPR; BIAcore T200; CsgA peptides immobilised on a CM7 chip by EDC/NHS coupling; DnaK 50–1000 nM as analyte, single-cycle kinetics; 25 °C; HBS-DM buffer (10 mM HEPES pH 7.4, 150 mM NaCl, 5 mM MgCl2, 1% dimethylsulfoxide); 30 μL min^−1; fit with a 1:1 binding mode
Conditions: both partners purified
Listed binders paired with reported Kd
Response body: numeric value in nM, unit text excluded.

>  <binder>
KLLKVAAIAAIVFSGSALA (also called CsgA signal peptide; source: synthetic peptide (Eurofins Genomics, HPLC >95%)) [CsgA_(2–20) (signal peptide of CsgA without the N-terminal Met)]

>  <quantitative readout>
2.19

$$$$

Lab note: next binder to report on.
Short answer for SSVNVTQVGFGNNATAHQY (source: synthetic peptide (Eurofins Genomics, HPLC >95%)) [CsgA_(133–151) (R5, the most amyloidogenic of the five repeats)] : Kd was 20.7
